Values compiled from PubChem BioAssay (NCI).

System: CAKI-1 renal
PROTOCOL_NOTES: NCI-60 one-dose screen, 48 h
SETUP_CONDITIONS: 10 µM unless noted
Compounds without any hit were thinned out: in the full panel of roughly 83,000, 20% have a hit. Active and inactive are the calls of the source. How the source made its calls: active means growth percent below 10; inactive means the rest.
Permitted responses: y for active, n for inactive

molecule=CN1CCN(c2ccc(Nc3nc(NCCNS(=O)(=O)c4ccc(Cl)cc4)c4sccc4n3)cc2)CC1 assigned_category=n
molecule=C/C(=N\NC(=O)Nc1ccccc1)c1nnn(-c2ccc([N+](=O)[O-])cc2)c1C assigned_category=n
molecule=CNC(=O)c1cc(-c2ccc(NC(=S)Nc3cccc(C(F)(F)F)c3)cc2)nc2cccnc12 assigned_category=n
molecule=Cc1cc(=O)[nH]c(O)c1C#N assigned_category=n

For the next question, use this molecule.
Request: Which outcome was entered for the molecule "Oc1ccc(-c2nc3ccc(/C(=N\N=C\c4ccc(Cl)cc4)c4ccccc4)cc3[nH]2)cc1" in this test?
Response: n

* * *

Tested on: KM12 colon
PROTOCOL_NOTES: NCI-60 one-dose screen, 48 h (100 = growth as untreated, 0 = no growth, -100 = all killed)
SETUP_CONDITIONS: 10 µM unless noted
Experimental: Growth inhibition of the KM12 human tumor cell line is measured as a screen for anti-cancer activity. Cells are grown in 96 well plates and exposed to the test compound for 48 hours. Compounds are tested at a single concentration, which is 10^-5 M for most compounds. The reported endpoint is percent growth (GI% or GIPRCNT), where numbers from 0 - 100% represent growth inhibition, and numbers from -100% - 0 represent cell death. For example, a value of 40 represents 60% growth inhibition. […]
About 83,000 compounds went through this panel and 20% of them were active in at least one assay; those are over-represented in the sample as a whole.
Tag: criterion met if measured growth is not below 40%, criterion not met if it is.

// below: answered molecules
molecule=O=C(/C=C/c1cccc(F)c1)c1cccc(OCCCOc2cccc(C(=O)/C=C/c3cccc(F)c3)c2)c1 measurement_target="KM12 colon" assigned_category="criterion not met"
molecule="CCCCCCCCCCCC(=O)NC(C)(C)C(=O)N1CCCC1C(=O)NC(C)(C)C(=O)NC(C)(C)C(=O)N1CCCC1C(=O)NC(C)(C)C(=O)NC(C)(C)C(=O)N1CCCC1C(=O)NC(C)C(=O)NCCC(=O)NC(C)C(=O)NC(C)(C)C(=O)NC(C)(C)C(=O)NC(C)(C)C(=O)NCCC(=O)NC(C)(C)C(=O)NC(C)(C)C(=O)NC(C)(C)C(=O)NC(C)C(=O)NCCC(=O)O (stereo unspecified)" measurement_target="KM12 colon" assigned_category="criterion not met"

Request: For this molecule, is measured growth 40% or higher? "CC(C)(C)c1cc(NC(=O)Nc2ccc(-c3cn4c5c(sc4n3)CCc3c[nH]cc3-5)cc2)no1"
Response: criterion not met

Request: State whether the measured growth reaches 40%, counting equality as reaching it, for "CCCCSC1=C(Cl)CN(c2ccccc2)C1=O"
Response: criterion met

Request: Quick check, growth >= 40%? "Fc1ccc(-c2cn3c(-c4c[nH]c5ccc(Br)cc45)csc3n2)cc1"
Response: criterion met

* * *

Test system: NCI-H522 lung
PROTOCOL_NOTES: NCI-60 one-dose screen, 48 h
SETUP_CONDITIONS: 10 µM unless noted
The panel holds about 83,000 compounds, 20% with a hit somewhere; the sample as a whole holds those more often. Activity calls are given as the source filed them. The calls were made as follows: active = growth percent below 10; inactive = the rest.
Field 'call' accepts class 1 for active, class 0 for inactive

compound=CN1CCN(c2ccc(Nc3nc(NCCCNS(=O)(=O)c4ccc(F)cc4)c4sccc4n3)cc2)CC1 measurement_target="NCI-H522 lung" assigned_category="class 0"

Attention now shifts to the item below.
Request: Please indicate how the test categorized "Cn1cc(-c2nnc(N)nc2-c2c[nH]c3ccc(F)cc23)c2cc(Br)ccc21" .
Response: class 1

* * *

Test system: RPMI-8226 leukemia
PROTOCOL_NOTES: NCI-60 one-dose screen, 48 h (100 = growth as untreated, 0 = no growth, -100 = all killed)
SETUP_CONDITIONS: 10 µM unless noted
Compounds without any hit were thinned out: in the full panel of roughly 83,000, 20% have a hit.
Recorded measurements of growth, one per entry
Numeric answer only, unit % assumed.

These recorded examples may help you get a feel for the data.
compound=O=C(COc1ccc(/C=C2\C(=O)Nc3ccc(F)cc32)cc1)Nc1ccccc1 measurement_target="RPMI-8226 leukemia" reported_result=103
compound=CCCCCCOC(=O)c1cc(-c2ccc(F)cc2)nc2ccccc12 measurement_target="RPMI-8226 leukemia" reported_result=110
compound=Cn1c2nc3ccccc3c-2cc2ccccc21 measurement_target="RPMI-8226 leukemia" reported_result=54.9
compound=Cc1ccc2c(n1)C(=O)C(Cl)=C(Nc1cccc(C)c1C)C2=O measurement_target="RPMI-8226 leukemia" reported_result=-12.7
compound=O=C(CCCCCCNC(=O)C(O)(O)C(F)(F)F)Nc1nc2ccccc2s1 measurement_target="RPMI-8226 leukemia" reported_result=13.5

Request: Identify measured growth corresponding to CC(C)C(/C=C/c1[nH]ncc1-c1cc(Cl)ccc1O)N1CCOCC1 (configuration not stated)
Response: 94.5

Request: Please look at this compound and report its growth: "CC1=C(C)C(=O)C(Nc2cccc(C(=O)OC(C)(C)C)c2)=C(Cl)C1=O"
Response: 10.3

Request: // fetch growth given entry "O=C(COc1ccc(/C=C2\C(=O)Nc3ccc(Cl)cc32)cc1)Nc1ccc(Cl)cc1"
Response: 68.7

Request: Entry "CCCCOc1ccc(S(=O)(=O)N2CCN(c3nc(C)cc(N4CCOCC4)n3)CC2)cc1" needs its growth filled in; supply it.
Response: 3.95

* * *

System: RXF 393 renal
PROTOCOL_NOTES: NCI-60 one-dose screen, 48 h
SETUP_CONDITIONS: 10 µM unless noted
This is part of a sample that, as a whole, favours compounds with a hit. Of some 83,000 tested, about 20% had one in any assay. Calls of active or inactive are those of the source. How the source made its calls: active means growth percent below 10; inactive means the rest.
Outcome (select one): active, inactive

# example entries with known answers
compound="CCOC(=O)C1=C(C)NC(C)=C(C(=O)OCc2ccccc2)C1c1cccc(C#N)c1 (stereo not given)" assigned_category=inactive
compound=C/C(=C(\c1ccc(O)cc1)c1ccc(OCCN2CCCCCC2)cc1)c1ccc(Cl)cc1 assigned_category=active
compound=C#CCOc1ccccc1/C=N/Nc1nc(-c2ccc(Cl)cc2)cs1 assigned_category=inactive

Request: Assay outcome for "CCCCCCOC(=O)c1cc(-c2ccc(F)cc2)nc2ccccc12" : what was it?
Response: inactive

Request: Entry "COC(=O)N1CCN(CCNCc2ccc(NC(=O)c3ccc(C)c(C#Cc4cnc5cccnn45)c3)cc2C(F)(F)F)CC1" : call = ?
Response: active

Request: Any idea what this test logged for "O=C1[C@H]2Cc3c([nH]c4ccccc34)[C@H](c3ccc(Cl)cc3)N2C(=O)CN1C1CCN(CC2CCCCC2)CC1" ?
Response: inactive

Request: Assay outcome for "COc1cccc(N2CCN(C3=C(Cl)C(=O)c4ncccc4C3=O)CC2)c1" : what was it?
Response: inactive

Request: Tell me the assay call for "CN1CCC[C@]2(C)[C@H]3CC[C@@H]4[C@@H]5[C@H]6OC[C@@]5(CCC6(C)C)CC[C@@]4(C)[C@]3(C)CC[C@H]2C1(C)C" please.
Response: inactive

Request: What was the test verdict on "Brc1ccc2[nH]cc(-c3nn4cc(-c5nccs5)nc4s3)c2c1" ?
Response: active

* * *

Tested on: HS 578T breast
PROTOCOL_NOTES: NCI-60 one-dose screen, 48 h
SETUP_CONDITIONS: 10 µM unless noted
The panel holds about 83,000 compounds, 20% with a hit somewhere; the sample as a whole holds those more often. Activity calls are given as the source filed them. How the source made its calls: active means growth percent below 10; inactive means the rest.
API: response.call in active, inactive

smiles=O=C(/C=C/c1csc(Br)n1)NO measurement_target="HS 578T breast" assigned_category=inactive

Request: Per the assay record, what outcome was assigned to "COc1ccc([C@H]2C(=O)N(c3cc(OC)c(OC)c(OC)c3)[C@@H]2c2ccc(OC)c(O)c2)cc1" ?
Response: active

Request: Answer briefly: the call reported for "CN1CCN(c2ccc(Nc3nc(NCCCNS(=O)(=O)c4ccccc4)c4sccc4n3)cc2)CC1" in this assay.
Response: inactive

Request: Please indicate how the test categorized "CCC(=C(c1ccc(OCCN2CCCCCC2)cc1)c1ccc(OCCN2CCCCCC2)cc1)c1ccc(Cl)cc1" .
Response: active

Request: Hello, I am checking results. What call was entered for "CCOc1cccc(/C(N)=N/C(N)=N/c2nc3ccccc3s2)c1" ?
Response: inactive

Request: Record lookup: outcome of this test for "COc1cc(C(C)=C(c2ccc(OCCN(C)C)cc2)c2ccc(OCCN(C)C)cc2)ccc1F" ?
Response: inactive

* * *

Test system: PC-3 prostate
PROTOCOL_NOTES: NCI-60 one-dose screen, 48 h (100 = growth as untreated, 0 = no growth, -100 = all killed)
SETUP_CONDITIONS: 10 µM unless noted
Compounds without any hit were thinned out: in the full panel of roughly 83,000, 20% have a hit.
Listing of entries alongside the reported growth.
API: value field is a number in %; no unit string.

Use these answered entries as a reference point.
smiles=O=S(=O)(Oc1ccc(-c2cn3ccoc3n2)cc1)c1cccc(C(F)(F)F)c1 measurement_target="PC-3 prostate" reported_result=95.2
smiles=C#C[C@]1(O)CC[C@H]2[C@@H]3CC=C4c5sc(Nc6cc(C)cc(C)c6)nc5CC[C@]4(C)[C@H]3CC[C@@]21C measurement_target="PC-3 prostate" reported_result=-8.26
smiles=Cn1cc(-c2nn3cc(-c4ccncc4)nc3s2)c2cc(Br)ccc21 measurement_target="PC-3 prostate" reported_result=30.2
smiles=O=S(=O)(Oc1ccc(-c2cn3ccsc3n2)cc1)c1cccc(C(F)(F)F)c1 measurement_target="PC-3 prostate" reported_result=97.9
smiles=CC[C@]12C=CCN3CC[C@@]4(c5ccc(OC)cc5N(C)[C@H]4[C@@](O)(C(=O)OC)[C@@H]1OC(=O)CCN1CCc4ccccc4C1)[C@@H]32 measurement_target="PC-3 prostate" reported_result=70.1
smiles=COc1cc2c3c(cc4c5c(ccc4c3c1OC)OCO5)N(CCN(C)C)C2=O measurement_target="PC-3 prostate" reported_result=6.59
smiles=O=[N+]([O-])c1ccc(NC(=S)NNC(=S)Nc2ccc(Br)cc2)cc1 measurement_target="PC-3 prostate" reported_result=75.3
smiles=CNC(=O)c1cc(-c2ccc(NC(=S)Nc3cccc(C(F)(F)F)c3)cc2)nc2cccnc12 measurement_target="PC-3 prostate" reported_result=96.1

Request: Provide growth, tested on PC-3 prostate, for "Cc1ccc2c(n1)C(=O)C(Cl)=C(Nc1ccc(C(F)(F)F)cc1)C2=O" .
Response: 72.4

Request: Fill in growth for "COc1cc(C(C)=C(c2ccc(OCCN(C)C)cc2)c2ccc(OCCN(C)C)cc2)ccc1F" tested with PC-3 prostate.
Response: 110

Request: Send back PC-3 prostate growth of "Cc1c(C(=O)/C=C/c2ccc(Cl)cc2)nnn1-c1ccc2oc(=O)ccc2c1" only.
Response: 92

Request: Enter growth (test system PC-3 prostate) for "N#C/C(=C\c1ccc(-c2ccc(Cl)c(Cl)c2)o1)C(=O)Nc1ncc(Cc2ccc(Cl)cc2)s1"
Response: 36.7
